The binders listed here are annotated with their IC50.
target: HLA-A*0301 (human); assay: competition with 125I-labelled standard peptide for purified HLA; gel filtration
Quantity: IC50

INSERT INTO results (binder, reading) VALUES
  ('AVPLDSTFYK [Her2/neU.997.V2K10]', '0.55 µM'),
  ('AVPLDSTFYR [Her2/neu.997.V2]', '> 110 µM'),
  ('LVKSPNHVR [Her2/neu.852.R9]', '7.86 µM');
